test: Pharmacokinetic parameters (Tmax, AUClast, Cmax) of DD217 in phase II trial patients; type: in vivo, human (patients undergoing knee replacement surgery); conditions: human, plasma, oral, 60 mg/day; ABCB1 rs1045642 T/C (n 8); read-out: Tmax (SD)
experimental-endpoint: Tmax (h)
Give the number; h is assumed, so skip it.

(Q) Tmax lookup needed for CC(=N)N(C)c1ccc(C(=O)Nc2ccc(C)cc2C(=O)Nc2ccc(Cl)cn2)cc1.Cl [DD217] , thanks.
(A) 7.75

----------
assay: Pharmacokinetic parameters (Tmax, AUClast, Cmax) of DD217 in phase II trial patients; type: in vivo, human (patients undergoing knee replacement surgery); details: human, plasma, oral, 60 mg/day; ABCB1 rs2032582 G/G (n 4); read-out: AUClast (SD)
experimental-endpoint: AUC(0-t) (ng·h/mL)
// units = ng·h/mL; emit number, no label

(Q) Request the reported AUC(0-t) associated with CC(=N)N(C)c1ccc(C(=O)Nc2ccc(C)cc2C(=O)Nc2ccc(Cl)cn2)cc1.Cl [DD217]
(A) 164

----------
assay: Pharmacokinetic parameters (Tmax, AUClast, Cmax) of DD217 in phase II trial patients; type: in vivo, human (patients undergoing knee replacement surgery); conditions: human, plasma, oral, 40 mg/day; ABCB1 rs1128503 T>C, C/T (n 6); read-out: Tmax (SD)
experimental-endpoint: Tmax (h)
Numbers only; they are read as h.

(Q) Param item = CC(=N)N(C)c1ccc(C(=O)Nc2ccc(C)cc2C(=O)Nc2ccc(Cl)cn2)cc1.Cl [DD217] ; retrieve measured Tmax.
(A) 9.5

----------
assay: Pharmacokinetic parameters (Tmax, AUClast, Cmax) of DD217 in phase II trial patients; format: in vivo, human (patients undergoing knee replacement surgery); conditions: human, plasma, oral, 60 mg/day; ABCB1 rs1045642 T/T (n 7); read-out: Tmax (SD)
experimental-endpoint: Tmax
Note: a bare number is incomplete; add the unit.

(Q) Sample CC(=N)N(C)c1ccc(C(=O)Nc2ccc(C)cc2C(=O)Nc2ccc(Cl)cn2)cc1.Cl — what was its Tmax?
(A) 13.6 h

----------
assay: Pharmacokinetic parameters (Tmax, AUClast, Cmax) of DD217 in phase II trial patients; assay type: in vivo, human (patients undergoing knee replacement surgery); conditions: human, plasma, oral, 40 mg/day; ABCB1 rs2032582 G>T, G/G (n 8); read-out: AUClast (SD)
experimental-endpoint: AUC(0-t) (ng·h/mL)
The answer is to be given in ng·h/mL; state only the numeric part.

(Q) Fill in: AUC(0-t) of CC(=N)N(C)c1ccc(C(=O)Nc2ccc(C)cc2C(=O)Nc2ccc(Cl)cn2)cc1.Cl is ___
(A) 34.6

----------
assay: Pharmacokinetic parameters (Tmax, AUClast, Cmax) of DD217 in phase II trial patients; format: in vivo, human (patients undergoing knee replacement surgery); conditions: human, plasma, oral, 60 mg/day; ABCB1 rs4148738 T/T (n 4); read-out: AUClast (SD)
experimental-endpoint: AUC(0-t) (ng·h/mL)
Return type: number; implicit unit ng·h/mL.

(Q) # get_value(readout='AUC(0-t)', item= CC(=N)N(C)c1ccc(C(=O)Nc2ccc(C)cc2C(=O)Nc2ccc(Cl)cn2)cc1.Cl )
(A) 164

----------
test: Pharmacokinetic parameters (Tmax, AUClast, Cmax) of DD217 in phase II trial patients; format: in vivo, human (patients undergoing knee replacement surgery); settings: human, plasma, oral, 40 mg/day; ABCB1 rs1128503 T>C, C/C (n 8); read-out: Tmax (SD)
experimental-endpoint: Tmax (h)
# output: bare number, implied unit h

(Q) I have this compound here, CC(=N)N(C)c1ccc(C(=O)Nc2ccc(C)cc2C(=O)Nc2ccc(Cl)cn2)cc1.Cl [DD217] , and I need its recorded Tmax.
(A) 12.9

Hey, just so you know, these numbers are from paper PMC12655527.
